- System: SKOV3 cells
- assay_info: In vitro mitosafety (glucose/galactose) assay
- run_parameters: highest mito-safe dose = highest concentration at which gal/glc>0.80 (IC20) in SKOV3 cells, divided by mt-Keima EC50
# Mito-Safety Index (highest mito-safe dose/mt-Keima EC50) annotations

> print(dat)
                                   compound  value.reported
1  CC(C)(C#N)CO[C@H]1COc2ccccc2[C@@H]1Nc1ncnc2[nH]c(C(F)(F)F)cc12 [EP-0043230]           43.73
2  CC(C)(O)CO[C@H]1COc2ccccc2[C@@H]1Nc1ncnc2[nH]c(C3CC3)cc12 [EP-0042541]           50.82
3  FC(F)(F)c1cc2c(N[C@H]3c4ccccc4OC[C@@H]3OCC3CC3)ncnc2[nH]1 [EP-0043810]            46.3

GET /values?readout=Mito-Safety Index (highest mito-safe dose/mt-Keima EC50)&item= CC(C)(F)CO[C@H]1COc2ccccc2[C@@H]1Nc1ncnc2[nH]c(C(F)(F)F)cc12 [EP-0043741]
49.0

Query (compound): FC(F)(F)c1cc2c(N[C@H]3c4ccccc4OC[C@@H]3OCC3CCOC3)ncnc2[nH]1 (stereo partly drawn) [EP-0043842] ; field requested: Mito-Safety Index (highest mito-safe dose/mt-Keima EC50)
38.4

Please give the measured Mito-Safety Index (highest mito-safe dose/mt-Keima EC50) for this compound: CC(C)(F)CO[C@H]1COc2ccccc2[C@@H]1Nc1ncnc2[nH]c(C3CC3)cc12 [EP-0043180]
168.02

Quick one: Mito-Safety Index (highest mito-safe dose/mt-Keima EC50) for COCCO[C@H]1COc2ccccc2[C@@H]1Nc1ncnc2[nH]c(C3CC3)cc12 [EP-0041944] ?
45.94

# lookup: Mito-Safety Index (highest mito-safe dose/mt-Keima EC50) of FC(F)(F)c1cc2c(NC3CC4(CCCC4)Oc4ccccc43)ncnc2[nH]1 (stereo not drawn) [EP-0041220]
41.11

Value lookup for Mito-Safety Index (highest mito-safe dose/mt-Keima EC50); key = COCCCO[C@H]1COc2ccccc2[C@@H]1Nc1ncnc2[nH]c(C3CC3)cc12 [EP-0042529]
80.20

Reported Mito-Safety Index (highest mito-safe dose/mt-Keima EC50), compound COCC[C@@H]1COc2ccccc2[C@H]1Nc1ncnc2[nH]c(C(F)(F)F)cc12 (single isomer, unassigned) [EP-0041398] : ____
43.54

Fill in the blank: the reported Mito-Safety Index (highest mito-safe dose/mt-Keima EC50) of COCCO[C@H]1COc2cc(F)ccc2[C@@H]1Nc1ncnc2[nH]c(C3CC3)cc12 [EP-0042287] is ____.
38.56

Given the compound COCCCC1COc2ccccc2C1Nc1ncnc2[nH]c(C(F)(F)F)cc12 (single isomer, unassigned) [EP-0041483] , what is its reported Mito-Safety Index (highest mito-safe dose/mt-Keima EC50)?
48.05

Returns the measured Mito-Safety Index (highest mito-safe dose/mt-Keima EC50) for the input compound. Input: CC(C)CO[C@H]1COc2ccccc2[C@@H]1Nc1nccc2[nH]c(C(F)(F)F)cc12 [EP-0043866]
32.6

# Mito-Safety Index (highest mito-safe dose/mt-Keima EC50) lookup, item CC(C)(C#N)CO[C@@H]1COc2ccccc2[C@H]1Nc1ncnc2[nH]c(C3CC3)cc12 (stereo in doubt) [EP-0042976]
302.16

What value of measured Mito-Safety Index (highest mito-safe dose/mt-Keima EC50) is listed for FC(F)(F)c1cc2c(N[C@H]3CC4(CCCC4)Oc4ccccc43)ncnc2[nH]1 (single isomer, unassigned) [EP-0041356] ?
60.24

###

- Tested on: SKOV3 cells
- assay_info: In vitro mitosafety (glucose/galactose) assay
- run_parameters: highest mito-safe dose = highest concentration at which gal/glc>0.80 (IC20) in SKOV3 cells, divided by mt-Keima EC50
In this section, each of the molecules is paired with its reported Mito-Safety Index (highest mito-safe dose/mt-Keima EC50).
Kindly provide the number alone.

Below: 4 molecules and their reported Mito-Safety Index (highest mito-safe dose/mt-Keima EC50).
> print(dat)
                                   molecule  assay.system  value.reported
1  COCC[C@H]1COc2ccccc2[C@@H]1Nc1ncnc2[nH]c(C(F)(F)F)cc12   SKOV3 cells           39.13
2  CCO[C@H]1COc2ccccc2[C@@H]1Nc1ncnc2[nH]c(C(F)(F)F)cc12   SKOV3 cells            26.9
3  COCCO[C@H]1COc2cc(F)ccc2[C@@H]1Nc1ncnc2[nH]c(C(F)(F)F)cc12   SKOV3 cells           40.57
4  CC(C)(C#N)CCC1COc2ccccc2C1Nc1ncnc2[nH]c(C3CC3)cc12 (single isomer, unassigned)   SKOV3 cells           70.99

Look up Mito-Safety Index (highest mito-safe dose/mt-Keima EC50) for this molecule: COC(C)(C)CO[C@H]1COc2ccccc2[C@@H]1Nc1ncnc2[nH]c(C3CC3)cc12
51.11

Quick one: Mito-Safety Index (highest mito-safe dose/mt-Keima EC50) of CC(C)(C#N)CC[C@@H]1COc2ccccc2[C@H]1Nc1ncnc2[nH]c(C3CC3)cc12 (relative stereo) ?
64.67

// returns reported Mito-Safety Index (highest mito-safe dose/mt-Keima EC50) for input CC(C)CO[C@H]1COc2ccccc2[C@@H]1Nc1ncnc2[nH]c(C(F)(F)F)cc12
147.1

###

- Test system: SKOV3 cells
- assay_info: In vitro mitosafety (glucose/galactose) assay
- run_parameters: highest mito-safe dose = highest concentration at which gal/glc>0.80 (IC20) in SKOV3 cells, divided by mt-Keima EC50
# Lookup of reported Mito-Safety Index (highest mito-safe dose/mt-Keima EC50) keyed by entry
Lab note: record just the number, no unit beside it.

> print(dat)
                                   molecule  assay.system  value.reported
1  COC(C)(C)CO[C@H]1COc2ccccc2[C@@H]1Nc1ncnc2[nH]c(C(F)(F)F)cc12   SKOV3 cells           38.50

Requested read-out: Mito-Safety Index (highest mito-safe dose/mt-Keima EC50). Entry: COC[C@]1(C)C[C@@H](Nc2ncnc3[nH]c(C(F)(F)F)cc23)c2ccccc2O1 (single isomer, unassigned)
73.0

# input molecule: Fc1ccc2c(c1)OC[C@H](OCC1CC1)[C@H]2Nc1ncnc2[nH]c(C(F)(F)F)cc12 ; wanted: its Mito-Safety Index (highest mito-safe dose/mt-Keima EC50)
36.7

Please report the recorded Mito-Safety Index (highest mito-safe dose/mt-Keima EC50) for CC(C)(O)CO[C@H]1COc2ccccc2[C@@H]1Nc1ncnc2[nH]c(C(F)(F)F)cc12 .
53.45
